B1: Membrane-associated guanylate kinase, WW and PDZ domain-containing protein 1, residues 352 to 401; numbered along this chain, Q96QZ7 (parent)
chain: TEELDSELELPAGWEKIEDPVYGIYYVDHINRKTQYENPVLEAKRKKQLE

Variants of: B1
Test: abundance fitness (aPCA) (normalised: wild type 0, dead -1); higher = more abundant; growth selection in yeast, the domain comes from the species named
Details: Homo sapiens
Exercise: for every item that follows, state its recorded abundance fitness.
Answer with a bare number; do not write a unit.

Provide abundance fitness value for the following variant: `K16Q`
-0.2

Specify measured abundance fitness for `N31R` .
-0.201

Report abundance fitness for `I30F`
-0.195

For the variant `Y22N` , give its measured abundance fitness value.
-0.199
